From: paper PMC10207366

pIC50: −log10 of the molar value.
Form: system (rat sEH (rsEH) (Rattus norvegicus, UniProt P80299)), quantity (pIC50), values below.
readoutLabel: pIC50

See these solved cases before continuing.
{"compound": "NC(=O)COc1ccc(NC(=O)NCCC(c2ccccc2)c2ccccc2)cc1 [Z339843288]", "experimentalSystem": "rat sEH (rsEH) (Rattus norvegicus, UniProt P80299)", "pIC50": 9.00}
{"compound": "CC1CCC(NC(=O)Nc2cccc(Cn3nc4ccccn4c3=O)c2)CC1 (stereo not shown) [Z436130862]", "experimentalSystem": "rat sEH (rsEH) (Rattus norvegicus, UniProt P80299)", "pIC50": 9.00}
{"compound": "O=C(CSc1nc(-c2ccccc2)cn1-c1ccccc1)NC(=O)Nc1ccccc1 [AO-476/43362680]", "experimentalSystem": "rat sEH (rsEH) (Rattus norvegicus, UniProt P80299)", "pIC50": 4.60}

(A) O=C(NCCC(=O)N1CCN(S(=O)(=O)c2ccccc2F)CC1)NC12CC3CC(CC(C3)C1)C2 [Z29532165]
(B) O=C(NCc1ccc(-c2nc3ccccc3s2)o1)NC1CCCC(C(F)(F)F)C1 (stereo not shown) [Z353003074]
(C) CC1CCCCC1OCCNC(=O)Nc1cccc(OCc2ccccn2)c1 (stereo not shown) [Z416144030, CC1CCCCC1OCCNC(=O)Nc1cccc(OCc2ccccn2)c1]
(D) CC(=O)CCc1ccc(OCC(=O)N2CCCC(CNC(=O)Nc3ccc(C)cc3)C2)cc1 (stereo not shown) [Z1033382608]
Arrange these compounds by their pIC50, starting with the largest number. Give the labels in the order specified.
B, C, A, D

###

- experimentalSystem: purified recombinant hsEH (Homo sapiens)
- Sequence (P34913 1-555): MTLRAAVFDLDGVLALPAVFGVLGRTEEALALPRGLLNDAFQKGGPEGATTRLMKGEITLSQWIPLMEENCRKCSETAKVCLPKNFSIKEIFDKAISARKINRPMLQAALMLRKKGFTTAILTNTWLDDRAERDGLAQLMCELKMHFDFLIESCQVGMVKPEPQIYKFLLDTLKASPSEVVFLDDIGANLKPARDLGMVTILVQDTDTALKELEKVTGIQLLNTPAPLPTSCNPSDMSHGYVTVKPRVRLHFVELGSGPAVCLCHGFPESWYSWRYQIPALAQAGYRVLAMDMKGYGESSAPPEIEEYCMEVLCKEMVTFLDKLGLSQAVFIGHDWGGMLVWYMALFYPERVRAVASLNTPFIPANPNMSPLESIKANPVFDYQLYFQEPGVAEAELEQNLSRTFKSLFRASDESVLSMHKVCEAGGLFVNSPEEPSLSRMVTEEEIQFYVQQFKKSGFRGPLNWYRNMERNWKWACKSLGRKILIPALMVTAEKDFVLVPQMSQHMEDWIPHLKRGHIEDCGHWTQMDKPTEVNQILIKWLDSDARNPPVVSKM
- testMethodNotes: fluorescence-based sEH IC50 assay (CMNPC substrate)
- Assay type: biochemical
- protocolConditions: experimental, human sEH; read-out: pIC50 hsEH (converted)
readoutLabel: IC50 (nM)

See these solved cases before continuing.
{"compound": "NC(=O)COc1ccc(NC(=O)NCCC(c2ccccc2)c2ccccc2)cc1", "readoutLabel": "IC50", "measurement": 1.26}
{"compound": "CC(NC(=O)NCc1ccc(N2CCCC2=O)cc1)c1cccc(Cl)c1 (centres unmarked)", "readoutLabel": "IC50", "measurement": 126}
{"compound": "O=C(COC(=O)c1ccc(N2CCCC2=O)cc1)NC(=O)NC12CC3CC(CC(C3)C1)C2", "readoutLabel": "IC50", "measurement": 100}

(I) CC(C)N1CCC(NC(=O)NCCC(c2ccccc2)c2ccccc2)CC1
(II) O=C(NCc1ccc(N2CCCC2=O)cc1)NCc1cccc(C(F)(F)F)c1
(III) CC1CCCCC1OCCNC(=O)Nc1cccc(OCc2ccccn2)c1 (centres unmarked)
(IV) O=C(NCc1ccc(-c2nc3ccccc3s2)o1)NC1CCCC(C(F)(F)F)C1 (centres unmarked)
(V) O=C(CSc1nc(-c2ccccc2)cn1-c1ccccc1)NC(=O)Nc1ccccc1
Give the ascending ranking of the items by reported IC50. Give the labels in the order specified.
IV, III, I, II, V
